- assayed-system: mu-opioid receptor (MOR) (Rattus norvegicus)
- Construct: Rat cortices were homogenized using 50 mM Tris, pH 7.4, and centrifuged at 16,500 rpm for 10 min; from tissue; host or cells: rat cortex membranes
- protocol-text: MOR radioligand competition binding assay ([3H]-DAMGO)
- reported-conditions: Mu screening results, mean of Exp 1 and Exp 2; unit inferred; read-out: MEAN (Ki)
pKi: −log10 of the molar value.
Label MET for high-side pKi (at or above 6) and NOT MET for low-side pKi (below it).

>>> classification("CC(C)C[C@H]1CN([C@@H](Cc2ccc(O)cc2)CN2C(=N)NC[C@@H]2Cc2ccccc2)C(=N)N1")
"NOT MET"
>>> classification("CC(C)C[C@@H](CN1C(=N)NC[C@@H]1Cc1ccccc1)N1C[C@H](Cc2ccc(O)cc2)NC1=N")
"MET"
>>> classification("Cc1cc(O)cc(C)c1C[C@H]1CNC(=N)N1C[C@H](Cc1c(C)cc(O)cc1C)N1C[C@H](CC(C)C)NC1=N")
"MET"

Data request: Exam item: decide whether the reported pKi for Cc1cc(O)cc(C)c1C[C@H]1CN([C@@H](Cc2c(C)cc(O)cc2C)CN2C(=N)NC[C@@H]2Cc2c(C)cc(O)cc2C)C(=N)N1 is at least 6.
Data returned: MET

====

So I've got a bunch of compounds here, and I need their pKi values.
- assayed-system: mu-opioid receptor (MOR) (Rattus norvegicus)
- Construct: Rat cortices were homogenized using 50 mM Tris, pH 7.4, and centrifuged at 16,500 rpm for 10 min; from tissue; host or cells: rat cortex membranes
- protocol-text: MOR radioligand competition binding assay ([3H]-DAMGO)
- reported-conditions: Mu screening results, experiment 1; unit inferred; read-out: Ki (Exp 1)
Give bare numbers, as −log10 of the molar value.

>>> observed_measurement("Cc1cc(O)cc(C)c1C[C@H]1CNC(=N)N1C[C@H](Cc1ccc(O)cc1)N1C[C@H](Cc2ccc(O)cc2)NC1=N [1968-54]")
7.14
>>> observed_measurement("Cc1cc(O)cc(C)c1C[C@H]1CNC(=N)N1C[C@H](Cc1ccccc1)N1C[C@H](CC(C)C)NC1=N [1968-51]")
6.90

Next:
Data request: What measured pKi goes with Cc1cc(O)cc(C)c1C[C@H]1CN([C@@H](Cc2ccccc2)CN2C(=N)NC[C@@H]2Cc2c(C)cc(O)cc2C)C(=N)N1 [1968-52] ?
Data returned: 7.08

====

- assayed-system: mu-opioid receptor (MOR) (Rattus norvegicus)
- Construct: Rat cortices were homogenized using 50 mM Tris, pH 7.4, and centrifuged at 16,500 rpm for 10 min; from tissue; host or cells: rat cortex membranes
- protocol-text: MOR radioligand competition binding assay ([3H]-DAMGO)
- reported-conditions: Mu screening results, experiment 2; unit inferred; read-out: Ki (Exp 2)
So I've got a bunch of molecules here, and I need their Ki values.
Numbers only, in nM.

>>> observed_measurement("CC(C)C[C@@H](CN1C(=N)NC[C@@H]1Cc1ccccc1)N1C[C@H](Cc2ccccc2)NC1=N [1968-9]")
955
>>> observed_measurement("N=C1NC[C@H](Cc2ccccc2)N1C[C@H](Cc1ccc(O)cc1)N1C[C@H](Cc2ccccc2)NC1=N [1968-5]")
671
>>> observed_measurement("Cc1cc(O)cc(C)c1C[C@H]1CNC(=N)N1C[C@H](Cc1c(C)cc(O)cc1C)N1C[C@H](Cc2ccc(O)cc2)NC1=N [1968-62]")
78.4
>>> observed_measurement("Cc1cc(O)cc(C)c1C[C@H]1CNC(=N)N1C[C@H](CC(C)C)N1C[C@H](CC(C)C)NC1=N [1968-59]")
156
>>> observed_measurement("CC(C)C[C@H]1CN([C@@H](CC(C)C)CN2C(=N)NC[C@@H]2Cc2ccc(O)cc2)C(=N)N1 [1968-27]")
1000
>>> observed_measurement("Cc1cc(O)cc(C)c1C[C@H]1CNC(=N)N1C[C@H](Cc1ccccc1)N1C[C@H](CC(C)C)NC1=N [1968-51]")
162
>>> observed_measurement("CC(C)C[C@@H](CN1C(=N)NC[C@@H]1Cc1ccc(O)cc1)N1C[C@H](Cc2ccccc2)NC1=N [1968-25]")
725
>>> observed_measurement("Cc1cc(O)cc(C)c1C[C@H]1CNC(=N)N1C[C@H](Cc1c(C)cc(O)cc1C)N1C[C@H](CC(C)C)NC1=N [1968-63]")
98.8
>>> observed_measurement("Cc1cc(O)cc(C)c1C[C@@H](CN1C(=N)NC[C@@H]1Cc1ccc(O)cc1)N1C[C@H](Cc2ccc(O)cc2)NC1=N [1968-30]")
127
>>> observed_measurement("Cc1cc(O)cc(C)c1C[C@H]1CNC(=N)N1C[C@H](CC(C)C)N1C[C@H](Cc2ccccc2)NC1=N [1968-57]")
74.1

Hey, can you go through the list below and give me Ki for every item?
1. Cc1cc(O)cc(C)c1C[C@H]1CN([C@@H](Cc2ccccc2)CN2C(=N)NC[C@@H]2Cc2ccc(O)cc2)C(=N)N1 [1968-20]
2. Cc1cc(O)cc(C)c1C[C@H]1CN([C@@H](Cc2ccccc2)CN2C(=N)NC[C@@H]2C)C(=N)N1 [1968-36]

Data returned:
1: 80.3; 2: 124

Data request: What measured Ki goes with N=C1NC[C@H](Cc2ccc(O)cc2)N1C[C@H](Cc1ccccc1)N1C[C@H](Cc2ccccc2)NC1=N [1968-17] ?
Data returned: 741

====

- assayed-system: mu-opioid receptor (MOR) (Rattus norvegicus, UniProt P33535)
- Construct: Rat cortices were homogenized using 50 mM Tris, pH 7.4, and centrifuged at 16,500 rpm for 10 min; from tissue; host or cells: rat cortex membranes
- Sequence (P33535 whole entry): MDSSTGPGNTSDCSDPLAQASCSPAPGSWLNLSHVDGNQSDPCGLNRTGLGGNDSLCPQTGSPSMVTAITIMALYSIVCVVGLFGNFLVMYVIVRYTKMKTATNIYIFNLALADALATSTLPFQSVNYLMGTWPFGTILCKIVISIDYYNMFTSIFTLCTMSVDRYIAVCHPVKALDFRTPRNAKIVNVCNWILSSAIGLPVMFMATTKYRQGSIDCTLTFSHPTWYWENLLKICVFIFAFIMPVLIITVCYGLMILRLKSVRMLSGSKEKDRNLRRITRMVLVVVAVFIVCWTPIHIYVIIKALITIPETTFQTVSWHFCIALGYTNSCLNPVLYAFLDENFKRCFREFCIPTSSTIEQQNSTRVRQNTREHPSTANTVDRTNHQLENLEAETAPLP
- protocol-text: MOR radioligand competition binding assay ([3H]-DAMGO)
- reported-conditions: Mu screening results, mean of Exp 1 and Exp 2; unit inferred; read-out: MEAN (Ki)
So I've got a bunch of molecules here, and I need their pKi values.
Answers are plain numbers, as −log10 of the molar value.

Here's what some known entries look like.
>>> observed_measurement("CC(C)C[C@H]1CN([C@@H](CC(C)C)CN2C(=N)NC[C@@H]2C)C(=N)N1 [1968-43]")
5.03
>>> observed_measurement("Cc1cc(O)cc(C)c1C[C@@H](CN1C(=N)NC[C@@H]1C)N1C[C@H](CC(C)C)NC1=N [1968-19]")
7.82
>>> observed_measurement("C[C@H]1CNC(=N)N1C[C@H](Cc1ccc(O)cc1)N1C[C@H](Cc2ccccc2)NC1=N [1968-37]")
6.17
>>> observed_measurement("CC(C)C[C@H]1CN([C@@H](Cc2ccccc2)CN2C(=N)NC[C@@H]2Cc2ccccc2)C(=N)N1 [1968-3]")
5.59
>>> observed_measurement("CC(C)C[C@@H](CN1C(=N)NC[C@@H]1Cc1ccc(O)cc1)N1C[C@H](Cc2ccc(O)cc2)NC1=N [1968-26]")
6.12

Hey, can you go through the list below and give me pKi for every item?
1. CC(C)C[C@@H](CN1C(=N)NC[C@@H]1Cc1ccccc1)N1C[C@H](Cc2ccccc2)NC1=N [1968-9]
2. CC(C)C[C@@H](CN1C(=N)NC[C@@H]1C)N1C[C@H](Cc2ccc(O)cc2)NC1=N [1968-42]
3. N=C1NC[C@H](Cc2ccccc2)N1C[C@H](Cc1ccc(O)cc1)N1C[C@H](Cc2ccccc2)NC1=N [1968-5]
4. Cc1cc(O)cc(C)c1C[C@@H](CN1C(=N)NC[C@@H]1Cc1ccccc1)N1C[C@H](CC(C)C)NC1=N [1968-15]
5. Cc1cc(O)cc(C)c1C[C@H]1CNC(=N)N1C[C@H](Cc1c(C)cc(O)cc1C)N1C[C@H](Cc2ccc(O)cc2)NC1=N [1968-62]
6. N=C1NC[C@H](Cc2ccc(O)cc2)N1C[C@H](Cc1ccccc1)N1C[C@H](Cc2ccccc2)NC1=N [1968-17]
7. Cc1cc(O)cc(C)c1C[C@H]1CNC(=N)N1C[C@H](CC(C)C)N1C[C@H](Cc2ccccc2)NC1=N [1968-57]

Data returned:
6.05
5.64
6.10
6.52
7.15
6.04
7.18

Hey, can you go through the list below and give me pKi for every item?
1. Cc1cc(O)cc(C)c1C[C@@H](CN1C(=N)NC[C@@H]1C)N1C[C@H](Cc2ccc(O)cc2)NC1=N [1968-16]
2. CC(C)C[C@H]1CN([C@@H](Cc2ccc(O)cc2)CN2C(=N)NC[C@@H]2Cc2ccc(O)cc2)C(=N)N1 [1968-23]

Data returned:
1. 8.08
2. 5.64
